The measured values listed here are drawn from patent US8907103B2.

# maps each entry to its OBAV in rat
- Assay: Oral bioavailability in the rat
- Format: in vivo
Return type: number; implicit unit %.

Below, each entry is followed by its recorded OBAV in rat result.
[[record]]
molecule = "Cc1cc(Cl)ccc1-c1ccc(NC(=O)[C@H](Cc2ccc(C(=O)NCCS(=O)(=O)O)cc2)c2cccc(C3CCC(C)(C)CC3)c2)cc1"
metric = "OBAV in rat"
endpoint_result = 52

[[record]]
molecule = "Cc1cc(-c2ccc(NC(=O)[C@H](Cc3ccc(C(=O)NCCS(=O)(=O)O)cc3)c3ccc(-c4ccc(C(C)(C)C)cc4)cc3)cc2)ccc1Cl"
metric = "OBAV in rat"
endpoint_result = 62

[[record]]
molecule = "CC1(C)CC=C(c2ccc(NC(=O)[C@H](Cc3ccc(C(=O)NCCS(=O)(=O)O)cc3)c3ccc(-c4ccc(C(C)(C)C)cc4)cc3)cc2)CC1"
metric = "OBAV in rat"
endpoint_result = 69

[[record]]
molecule = "Cc1cc(C)c(-c2ccc(NC(=O)[C@H](Cc3ccc(C(=O)NCCS(=O)(=O)O)cc3)c3ccc(-c4ccc(C(C)(C)C)cc4)cc3)cc2)c(C)c1"
metric = "OBAV in rat"
endpoint_result = 73


In: Requested read-out: OBAV in rat. Entry: Cc1cc(Cl)ccc1-c1ccc(NC(=O)C(Cc2ccc(C(=O)NCCS(=O)(=O)O)cc2)c2ccc(C3=CCC(C)(C)CC3)cc2)cc1 (racemic)
Out: 48

In: Do the same for Cc1cc(Cl)ccc1-c1ccc(NC(=O)[C@H](Cc2ccc(C(=O)NCCS(=O)(=O)O)cc2)c2ccc([C@H]3CC[C@@H](C(C)(C)C)CC3)cc2)cc1 please
Out: 54

In: Do the same for Cc1cc(Cl)ccc1-c1ccc(NC(=O)C(Cc2ccc(C(=O)NCCS(=O)(=O)O)cc2)c2cccc(C3=CCC(C)(C)CC3)c2)cc1 (racemic) please
Out: 38

----------
- Study System: human glucagon receptor (Homo sapiens)
- Construct: host or cells: human liver samples or a recombinant cell line (alternatives)
- Sequence (P47871 26-477): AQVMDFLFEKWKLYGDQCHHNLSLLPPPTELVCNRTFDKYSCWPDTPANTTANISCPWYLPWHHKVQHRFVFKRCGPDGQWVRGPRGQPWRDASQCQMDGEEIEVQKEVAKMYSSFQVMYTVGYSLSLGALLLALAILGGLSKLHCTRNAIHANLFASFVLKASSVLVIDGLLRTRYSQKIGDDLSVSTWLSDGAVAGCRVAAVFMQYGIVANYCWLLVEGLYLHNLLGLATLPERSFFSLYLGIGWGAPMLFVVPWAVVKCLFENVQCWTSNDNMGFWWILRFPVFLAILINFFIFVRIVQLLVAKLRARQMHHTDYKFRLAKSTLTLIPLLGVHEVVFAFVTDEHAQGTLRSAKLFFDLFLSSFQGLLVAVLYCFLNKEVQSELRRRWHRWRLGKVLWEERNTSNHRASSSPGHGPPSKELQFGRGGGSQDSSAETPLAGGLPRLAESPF
- Assay: Human glucagon receptor affinity ([125I]glucagon displacement, membrane preparation)
- Type: binding
- Measurement Setup: human glucagon receptor binding assay; stereo column says racemic or R-isomer; read-out: Hu IC50
Metric: IC50 (nM)
Return type: number; implicit unit nM.

Below, each entry is followed by its recorded IC50 result.
[[record]]
molecule = "CC(C)(C)c1ccc(-c2ccc(C(Cc3ccc(C(=O)NCCS(=O)(=O)O)cc3)C(=O)Nc3ccc(-c4nc5ccccc5o4)cc3)cc2)cc1 (racemic)"
endpoint_result = 12

[[record]]
molecule = "CC(C)(C)C1CCC(c2ccc(C(Cc3ccc(C(=O)NCCS(=O)(=O)O)cc3)C(=O)Nc3ccc(-c4ccc(Cl)cc4Cl)cc3)cc2)CC1 (racemic) [drawing 106]"
endpoint_result = 16

[[record]]
molecule = "Cc1cc(Cl)ccc1-c1ccc(NC(=O)C(Cc2ccc(C(=O)NCCS(=O)(=O)O)cc2)c2ccc(C3CCC(C(C)(C)C)CC3)cc2)cc1 (racemic)"
endpoint_result = 12

[[record]]
molecule = "Cc1cc(-c2ccc(NC(=O)[C@H](Cc3ccc(C(=O)NCCS(=O)(=O)O)cc3)c3ccc(-c4ccc(C(C)(C)C)cc4)cc3)cc2)ccc1Cl"
endpoint_result = 6

[[record]]
molecule = "CC(C)(C)c1ccc(-c2ccc(C(Cc3ccc(C(=O)NCCS(=O)(=O)O)cc3)C(=O)Nc3ccc(-c4ccccc4Cl)cc3)cc2)cc1 (racemic)"
endpoint_result = 18

[[record]]
molecule = "Cc1cc(C)c2oc(-c3ccc(NC(=O)C(Cc4ccc(C(=O)NCCS(=O)(=O)O)cc4)c4ccc(-c5ccc(C(C)(C)C)cc5)cc4)cc3)nc2c1 (racemic)"
endpoint_result = 11

[[record]]
molecule = "Cc1cc(Cl)ccc1-c1ccc(NC(=O)C(Cc2ccc(C(=O)NCCS(=O)(=O)O)cc2)c2cccc(C3=CCCCC3)c2)cc1 (racemic)"
endpoint_result = 14

[[record]]
molecule = "CC(C)(C)C1CCC(c2ccc(C(Cc3ccc(C(=O)NCCS(=O)(=O)O)cc3)C(=O)Nc3ccc(-c4nc5ccccc5o4)cc3)cc2)CC1 (racemic)"
endpoint_result = 18


In: Requested read-out: IC50. Entry: Cc1cc(Cl)ccc1-c1ccc(NC(=O)[C@H](Cc2ccc(C(=O)NCCS(=O)(=O)O)cc2)c2cccc(C3CCC(C)(C)CC3)c2)cc1
Out: 10

In: Do the same for Cc1ccccc1-c1ccc(NC(=O)C(Cc2ccc(C(=O)NCCS(=O)(=O)O)cc2)c2ccc(-c3ccc(C(C)(C)C)cc3)cc2)cc1 (racemic) please
Out: 10

In: Do the same for O=C(NCCS(=O)(=O)O)c1ccc(CC(C(=O)Nc2ccc(-c3ccc(C(F)(F)F)cc3Cl)cc2)c2ccc(C3=CCCCC3)cc2)cc1 (racemic) please
Out: 16

In: Do the same for CC(C)(C)c1ccc(-c2ccc(C(Cc3ccc(C(=O)NCCS(=O)(=O)O)cc3)C(=O)Nc3ccc(-c4cc(Cl)cc(Cl)c4)cc3)cc2)cc1 (racemic) please
Out: 15

In: Do the same for CC1(C)CC=C(c2ccc(NC(=O)C(Cc3ccc(C(=O)NCCS(=O)(=O)O)cc3)c3ccc(-c4ccc(C(C)(C)C)cc4)cc3)cc2)CC1 (racemic) please
Out: 18
